biological target: Orexin receptor type 2 (Homo sapiens); experiment: Antagonist activity at human OX2R expressed in CHO-K1 cells assessed as inhibition of orexin-A-induced increase in calcium mobilization preincubated for 15 mins followed orexin-A stimulation by Fura-2-AM dye based fluorescence assay
Sequence (O43614 whole entry): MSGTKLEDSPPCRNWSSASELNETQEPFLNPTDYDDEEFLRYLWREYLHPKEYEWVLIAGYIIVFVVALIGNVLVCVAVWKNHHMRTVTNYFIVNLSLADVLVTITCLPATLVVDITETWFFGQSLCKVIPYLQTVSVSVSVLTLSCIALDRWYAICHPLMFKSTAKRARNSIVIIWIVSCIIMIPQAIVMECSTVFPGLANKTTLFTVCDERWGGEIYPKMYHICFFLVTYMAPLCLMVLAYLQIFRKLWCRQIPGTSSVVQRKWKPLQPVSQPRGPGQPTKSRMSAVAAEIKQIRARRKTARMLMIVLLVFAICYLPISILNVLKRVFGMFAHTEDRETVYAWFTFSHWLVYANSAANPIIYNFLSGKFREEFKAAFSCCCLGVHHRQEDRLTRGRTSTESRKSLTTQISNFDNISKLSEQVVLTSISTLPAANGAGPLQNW
PROPERTY MEASURED: log10(Ki) (log10 of the value in nM)
Short version: log10 scale, Ki, nM.

1. COc1cccc(C(=O)Nc2cccc([C@]3(C)O[C@@H]4N5[C@H](CO[C@H]53)O[C@@]4(C)c3cccc(NC(=O)c4ccccc4)c3)c2)c1 : 0.73

Query string: Requested read-out: log10(Ki). Entry: CN(C)c1cccc([C@]2(C)O[C@H]3CO[C@@H]4N3[C@H]2O[C@@]4(C)c2cccc(N(C)C)c2)c1
Result string: 2.82

Query string: So what does the record say about log10(Ki) for C[C@@]1(c2cccc(NS(=O)(=O)c3ccccc3)c2)O[C@H]2CO[C@@H]3N2[C@H]1O[C@]3(C)c1ccc(NS(=O)(=O)c2ccccc2)cc1 ?
Result string: 2.35

Query string: # lookup: log10(Ki) of CC(C)(C)OC(=O)Nc1cccc([C@]2(C)O[C@H]3CO[C@@H]4N3[C@H]2O[C@@]4(C)c2cccc(NC(=O)OC(C)(C)C)c2)c1
Result string: 2.26

Query string: Give its log10(Ki) value. Item: C[C@@]1(c2cccc(NC(=O)c3cccnc3)c2)O[C@H]2CO[C@@H]3N2[C@H]1O[C@@]3(C)c1cccc(NC(=O)c2cccnc2)c1
Result string: 2.42

Query string: Please look up its log10(Ki): C[C@@]1(c2cccc(NC(=O)c3ccncc3)c2)O[C@H]2CO[C@@H]3N2[C@H]1O[C@@]3(C)c1cccc(NC(=O)c2ccncc2)c1
Result string: 2.25

Query string: What value of log10(Ki) has been reported for the following molecule? C[C@@]1(c2cccc(NC(=O)c3ccccn3)c2)O[C@H]2CO[C@@H]3N2[C@H]1O[C@@]3(C)c1cccc(NC(=O)c2ccccn2)c1
Result string: 1.84

Query string: Need log10(Ki), item C[C@@]1(c2cccc(NC(=O)c3ccccc3)c2)O[C@H]2CO[C@@H]3N2[C@H]1O[C@@]3(C)c1cccc(NC(=O)c2ccccc2)c1
Result string: 1.18

Query string: Please give the measured log10(Ki) for this molecule: COc1ccccc1C(=O)Nc1cccc([C@]2(C)O[C@@H]3N4[C@H](CO[C@H]42)O[C@@]3(C)c2cccc(NC(=O)c3ccccc3)c2)c1
Result string: 1.75

###

Known microsomal CLint of a selection of molecules
assay: Metabolic stability in pooled human liver microsomes assessed as intrinsic clearance […] preincubated for 5 mins followed by NADPH addition and measured upto 60 mins by HPLC-MS/MS analysis; type: ADME, Microsome; details: time < 65 min, read-out: CLH
Enter your answer as a number in µL/min/mg; do not include the unit.

1. COc1ccc(C(=O)Nc2cccc([C@]3(C)O[C@H]4CO[C@@H]5N4[C@H]3O[C@@]5(C)c3cccc(NC(=O)c4ccc(OC)cc4)c3)c2)cc1 : 184

Could you now consider this next molecule?
Query string: Please give the measured microsomal CLint for this molecule: COc1ccc(C(=O)Nc2cccc([C@@]3(C)O[C@H]4CO[C@@H]5N4[C@H]3O[C@]5(C)c3cccc(NC(=O)c4ccc(OC)cc4)c3)c2)cc1
Result string: 183

###

target: Orexin/Hypocretin receptor type 1 (Homo sapiens); assay: Antagonist activity at human OX1R expressed in CHO-K1 cells assessed as inhibition of orexin-A-induced increase in calcium mobilization preincubated for 15 mins followed orexin-A stimulation by Fura-2-AM dye based fluorescence assay
PROPERTY MEASURED: Ki
Output should be the measured figure followed by the unit it is expressed in.

1) C[C@@]1(c2cccc(NC(=O)c3cccnc3)c2)O[C@H]2CO[C@@H]3N2[C@H]1O[C@@]3(C)c1cccc(NC(=O)c2cccnc2)c1 : 691 nM

Query string: API: value(readout= Ki, system= Orexin/Hypocretin receptor type 1 (Homo sapiens), query= CN(C)c1cccc(C(=O)Nc2cccc([C@@]3(C)O[C@H]4CO[C@@H]5N4[C@H]3O[C@]5(C)c3cccc(NC(=O)c4cccc(N(C)C)c4)c3)c2)c1 )
Result string: 7.85 nM

Query string: Hello, I am looking for reported Ki with Orexin/Hypocretin receptor type 1 (Homo sapiens) for COc1cccc(C(=O)Nc2cccc([C@]3(C)O[C@@H]4N5[C@H](CO[C@H]53)O[C@@]4(C)c3cccc(NC(=O)c4ccccc4)c3)c2)c1 . Could you help?
Result string: 7.66 nM

###

target: Orexin/Hypocretin receptor type 1 (Homo sapiens); experiment: Antagonist activity at human OX1R expressed in CHO-K1 cells assessed as inhibition of orexin-A-induced increase in calcium mobilization preincubated for 15 mins followed orexin-A stimulation by Fura-2-AM dye based fluorescence assay
pIC50: −log10 of the molar value.
Measured pIC50 accompanies every entry in the list below.

Consider the following illustrative entries.
1. C[C@@]1(c2cccc(NC(=O)c3ccncc3)c2)O[C@H]2CO[C@@H]3N2[C@H]1O[C@@]3(C)c1cccc(NC(=O)c2ccncc2)c1 : < 5.00
2. CN(C)c1ccccc1C(=O)Nc1cccc([C@]2(C)O[C@H]3CO[C@@H]4N3[C@H]2O[C@@]4(C)c2cccc(NC(=O)c3ccccc3N(C)C)c2)c1 : < 5.00
3. CN(C)c1cccc(C(=O)Nc2cccc([C@]3(C)O[C@H]4CO[C@@H]5N4[C@H]3O[C@@]5(C)c3cccc(NC(=O)c4cccc(N(C)C)c4)c3)c2)c1 : < 5.00

Query string: Given C[C@@]1(c2cccc(NS(=O)(=O)c3ccccc3)c2)O[C@H]2CO[C@@H]3N2[C@H]1O[C@]3(C)c1ccc(NS(=O)(=O)c2ccccc2)cc1 , state its recorded pIC50.
Result string: < 5.00

Query string: Value lookup for pIC50; key = CN(C)c1ccc(C(=O)Nc2cccc([C@]3(C)O[C@H]4CO[C@@H]5N4[C@H]3O[C@@]5(C)c3cccc(NC(=O)c4ccc(N(C)C)cc4)c3)c2)cc1
Result string: < 5.00

Query string: Find the recorded pIC50 belonging to CN(C)c1cccc([C@]2(C)O[C@H]3CO[C@@H]4N3[C@H]2O[C@@]4(C)c2cccc(N(C)C)c2)c1 and report it.
Result string: < 5.00

###

Molecular target: Orexin/Hypocretin receptor type 1 (Homo sapiens)
Sequence (O43613 whole entry): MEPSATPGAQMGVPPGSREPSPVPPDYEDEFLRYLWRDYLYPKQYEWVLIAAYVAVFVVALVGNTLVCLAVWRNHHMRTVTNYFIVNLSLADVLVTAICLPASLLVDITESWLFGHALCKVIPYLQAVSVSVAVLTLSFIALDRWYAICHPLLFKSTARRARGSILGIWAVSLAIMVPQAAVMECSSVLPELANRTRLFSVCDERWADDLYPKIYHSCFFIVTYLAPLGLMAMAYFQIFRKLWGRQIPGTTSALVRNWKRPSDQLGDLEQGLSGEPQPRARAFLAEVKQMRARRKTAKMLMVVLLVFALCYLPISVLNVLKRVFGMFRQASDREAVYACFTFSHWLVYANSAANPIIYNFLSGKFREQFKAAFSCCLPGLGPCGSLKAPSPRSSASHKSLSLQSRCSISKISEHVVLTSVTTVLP
Assay: Antagonist activity at human OX1R expressed in CHO-K1 cells assessed as inhibition of orexin-A-induced increase in calcium mobilization preincubated for 15 mins followed orexin-A stimulation by Fura-2-AM dye based fluorescence assay
Below, each entry is listed alongside its reported Ki.
Quick reminder: number only, in µM, skip the unit.

1. C[C@@]1(c2cccc(NC(=O)c3ccccc3)c2)O[C@H]2CO[C@@H]3N2[C@H]1O[C@@]3(C)c1cccc(NC(=O)c2ccccc2)c1 : 0.0234
2. CC(C)(C)OC(=O)Nc1cccc([C@]2(C)O[C@H]3CO[C@@H]4N3[C@H]2O[C@@]4(C)c2cccc(NC(=O)OC(C)(C)C)c2)c1 : 0.0342
3. C[C@]1(c2cccc(NC(=O)c3ccccn3)c2)O[C@H]2CO[C@@H]3N2[C@H]1O[C@]3(C)c1cccc(NC(=O)c2ccccn2)c1 : 0.0183
4. COc1ccc(C(=O)Nc2cccc([C@@]3(C)O[C@H]4CO[C@@H]5N4[C@H]3O[C@]5(C)c3cccc(NC(=O)c4ccc(OC)cc4)c3)c2)cc1 : 0.00187
5. COc1ccc(C(=O)Nc2cccc([C@]3(C)O[C@@H]4CO[C@H]5N4[C@@H]3O[C@@]5(C)c3cccc(NC(=O)c4ccc(OC)cc4)c3)c2)cc1 : 0.00217

Query string: Tell me reported Ki for COc1ccc(C(=O)Nc2cccc(C3(C)OC4COC5N4C3OC5(C)c3cccc(NC(=O)c4ccc(OC)cc4)c3)c2)cc1 (racemic) , tested with Orexin/Hypocretin receptor type 1 (Homo sapiens).
Result string: 0.00493

###

Target: Orexin/Hypocretin receptor type 1 (Homo sapiens, UniProt O43613)
Sequence (O43613 whole entry): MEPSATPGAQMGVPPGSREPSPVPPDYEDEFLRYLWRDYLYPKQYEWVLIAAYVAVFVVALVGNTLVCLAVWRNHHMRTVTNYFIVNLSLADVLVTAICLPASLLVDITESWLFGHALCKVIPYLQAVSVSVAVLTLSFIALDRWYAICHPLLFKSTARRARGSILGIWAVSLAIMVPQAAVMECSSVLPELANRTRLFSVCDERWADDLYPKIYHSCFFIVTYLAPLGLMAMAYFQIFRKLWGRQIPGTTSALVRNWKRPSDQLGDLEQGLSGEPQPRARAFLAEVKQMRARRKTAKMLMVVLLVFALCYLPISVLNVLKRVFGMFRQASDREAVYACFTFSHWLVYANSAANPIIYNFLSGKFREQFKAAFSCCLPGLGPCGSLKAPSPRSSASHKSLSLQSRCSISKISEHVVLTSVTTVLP
Assay: Antagonist activity at human OX1R expressed in CHO-K1 cells assessed as inhibition of orexin-A-induced increase in calcium mobilization preincubated for 15 mins followed orexin-A stimulation by Fura-2-AM dye based fluorescence assay
pKi values, listed per item
Remember, pKi is on a log scale: it is -log10 of the molar concentration.

The cases that follow already have their pKi on record.
1) CN(C)c1ccccc1C(=O)Nc1cccc([C@@]2(C)O[C@H]3CO[C@@H]4N3[C@H]2O[C@]4(C)c2cccc(NC(=O)c3ccccc3N(C)C)c2)c1 : 6.20
2) COc1cccc(C(=O)Nc2cccc([C@@]3(C)O[C@H]4CO[C@@H]5N4[C@H]3O[C@]5(C)c3cccc(NC(=O)c4ccccc4OC)c3)c2)c1 : 7.48
3) COc1ccccc1C(=O)Nc1cccc([C@]2(C)O[C@@H]3N4[C@H](CO[C@H]42)O[C@@]3(C)c2cccc(NC(=O)c3ccccc3)c2)c1 : 7.74

Query string: Consider the compound shown here: COc1ccc(C(=O)Nc2cccc([C@@]3(C)O[C@@H]4CO[C@H]5N4[C@@H]3O[C@]5(C)c3cccc(NC(=O)c4ccc(OC)cc4)c3)c2)cc1 What is its recorded pKi?
Result string: 6.96

Query string: Entry under review: C[C@]1(c2cccc(NC(=O)c3ccncc3)c2)O[C@H]2CO[C@@H]3N2[C@H]1O[C@]3(C)c1cccc(NC(=O)c2ccncc2)c1 . Reported pKi?
Result string: 6.98

Query string: I am curious: what pKi value has been reported for C[C@@]1(c2cccc(NC(=O)c3ccccn3)c2)O[C@H]2CO[C@@H]3N2[C@H]1O[C@@]3(C)c1cccc(NC(=O)c2ccccn2)c1 ?
Result string: 7.83
